Assay Explanation: soluble on expression in E. coli; label from the status in PepcDB or PDB records
Measurement Kind: soluble on expression in E. coli

>>> obs_value("MPNELSRSLSPYLLMHANDPVEWRMWSKETLRIATEENRLIFLSIGYSSCHWCHVMHEESFVDPDVAEILNNNYIPVKVDREERPDLDSYFMKVSQVINGNGGWPLNIILLPDARPVFAMTYVPKEDRNGMTGLKTILIQLSQMYLKDPDQFKDQAKAVSDAMEERESV")
"soluble"
>>> obs_value("MSLKITKLEKKKRLYLMELDNGDKCYITEDTIVRFMLSRDKVISEEELKEIQDFAQFSYGKNLALYHLSFKARTEKEVREYLKKYDIDKNIVSQVIANLKEDKWINDGQYAYAIINTNQLSGDKGPYVLTQKLAQKGISKSTIEENLKEFDFSEVAQRVANKLLKKYEGKLPARALQDKIIQNLTNKGFSYSDAKIAFDDLDSQVDQETTQELIFKELDKQYTKYARKYEGYELKQRLTQVLARKGYDFSDIASALREYLEGHHHHHH")
"soluble"

###

Assay Explanation: soluble on expression in E. coli; label from the status in PepcDB or PDB records
Measurement Kind: soluble on expression in E. coli

Worked cases, answers included:
>>> obs_value("MSLQRSYCYQLTRRFCQSHEHTKLAKWLNINSKLNPFRPDPPVGGSPFLHGVGDEDKPVYIPQDVRVGHTFVVGTTRVGKTRLASILINQDIRNGDAVIVVDPKGDQDLVRDMVAACKVSGRTEDFKIVHLGFPEQSAQYNPLKKFDQISEVATRITDAISAEGEGKQFAAFAWKYVNIVAICLEEMNQPITYQTIAFYISRLEQLLMSYADNILPNHYLNYHQEIDDIIEEHDSKIGKNNKTKSPMERHQAVIQYIKDHINKTIKSNNAEALHDQILIDLYDAAIMDKHYYDKITASVGPVLSEINKSNASKILSSKAQPGDIELMDVIKNKKVLYIGLDSLTNPNIAQAVGKAFLSDLVSTAGKIYKEEGHHHHHH")
"soluble"
>>> obs_value("MKLIAVLNLLNQLSNKNSLEEYLNGVIDFLSGWTGCENIGIRVLREAGLAPYVVHRGFDKDFIASESCISVEGDECVCLRVLKQQFKSEDQDHISAAGTYYAPNFYRYVEELREDQLLNFRGLCAHKQFKSLAVIPLLHQGKVVGAIHIADIKDGVFSEEDIHFIETIRPLVAEAIYRHNLEKALEHHHHHH")
"not soluble"
>>> obs_value("MSLRYTKEQCTAAEAQRLAQEIAFGPVVFQVSRLMLKFGIFQLLSGKREGYTLQEISGRTGLTRYAAQVLLEASLTIGTILLEEDRYVLAKAGWFLLNDKMARVNMEFNHDVNYQGLFHLEEALLNGRPEGLKVFGEWPTIYEGLSQLPEQVQKSWFGFDHFYSDQSFGKALEIVFSHHPKRLLDIGGNTGKWATQCVQYNKEVEVTIVDLPQQLEMMRKQTAGLSGSERIHGHGANLLDRDVPFPTGFDAVWMSQFLDCFSEEEVISILTRVAQSIGKDSKVYIMETLWDRQRYETASYCLTQISLYFTAMANGNSKMFHSDDLIRCIENAGLEVEEIQDNIGLGHSILQCRLKEGHHHHHH")
"soluble"
>>> obs_value("MVKSVGCKNLSLDVKKAIVAGFEQGTPTKMLALQIQRSPSTIWKVIKKYQTEKSVALRISPGRPRVTTHRMDRNILRSAREDPHRTATDIQTIISSPNEPVPSKRTVRRRLQQAGLHGRKPVKKPFISKKNRMARVAWAKAHLRWGRQEWAKHIWSDESKFNLFGSDGNSWVRRPVGSRYSPKYQCPTVKHGGGSVMVWGCFTSTSMGPLRRIQSIMDRFQYENILETTMRPWALQNVGRGFVFQQDNDPKHTSLHVRSWFQPCRVHLLDWPSQSPDLNPIEHLWEELERRLGGIRASNADAKFNQLENAWKAIPMSVIHKLIDSMPRRCLAVIDANGYATKY")
"not soluble"

Okay, next one:
What value of soluble on expression in E. coli has been recorded for this entry: GTPLPENENMSLYQSRVTVGELEMLASRFVGRTRVRNAFAQYWSQQRETLLPNQQASSALIRHTERVLAGVFGASSAKLVLTSALQGRKMQLEEVATIVDEASELYDFSRGLLQGAIEHIG
not soluble

###

Assay Explanation: soluble on expression in E. coli; label from the status in PepcDB or PDB records
Measurement Kind: soluble on expression in E. coli

>>> obs_value("MDILKKIEKYREEEQRLKWEGTFADYLEIIKENPMVAQSAHSRVFNMIKDSGIEEIDGRKKYSFFDRELFGLEESLERLVEEYFHPAAKRLDVRKRILLLMGPVSGGKSTLVTMLKKGLEAYTLTDNGAVYAIKGCPMHEDPLHLIPHHLRDDFYREYGIRIEGSLSPLNVMRLEEEYGGRIEDVKVERIFFSEDKRTGIGTFSPSDPKSQDIADLTGSIDFSTIAEYGSESDPRAYRFDGELNKANRGMMEFQEMLKCDEKFLWHLLSLTQEGNFKAGRFALISADELIVAHTNETEYRSFISNKKNEALHSRIIVMPVPYNLKVSEEERIYEKMIAESDVADVHIAPHTLKVAAMFSILTRLKEPKRSD")
"not soluble"
>>> obs_value("MTHRTKTRPVKVGNLTIGGNNELIIQSMTTTKTHDVEATVAEIKRLEEAGCQVVRVAVPDERAANAIADIKKQINIPLVADIHFDYRLALKAIEGGIDKVRINPGNIGRRHKVEAVVNAAKERGIPIRIGVNAGSLERHILEKYGYPTADGMVESALHHIKILEDLDFHDIIVSMKASDVNLAIEAYEKAARAFDYPLHLGITESGTLFAGTVKSAAGLGAILNKGIGNTLRISLSADPVEEVKVARELLKSFGLASNAATLISCPTCGRIEIDLISIANEVEEYISTLQVPIKVAVLGCAVNGPGEAREADIGIAGARGEGLLFRKGQVVRKVPEEIMVEELKKEIDVIAAEMAAEREKEKETQEQ")
"not soluble"

###

Assay Explanation: soluble on expression in E. coli; label from the status in PepcDB or PDB records
Measurement Kind: soluble on expression in E. coli

Worked cases, answers included:
>>> obs_value("TTFFGRETAFFNGTEKLGRKFSLPVVYMDVEKTGHDVFTGTIKLLHHPQDDSPEGSITEEYVRLMETTIRRDPSQWLWSHRRWKRPRLHNTRQL")
"not soluble"
>>> obs_value("SLAANMYRVGDYVYFENSSSNPYLIRRIEELNKTASGNVEAKVVCFYRRRDISNTLIMLADKHAKEIEEESETTVEADLTDKQKHQLKHRELFLSRQYESLPATHIRGKCSVALLNETESVLSYLDKEDTFFYSLVYDPSLKTLLADKGEIRVGPRYQADIPEMLLEGESDEREQSKLEVKVWDPNSPLTDRQIDQFLVVARAVGTFARALD")
"soluble"
>>> obs_value("VAKPKKTQPAATAPRVDVFDAKGKPKTVDASALRIAFADGRSLLVSLPDTADGAITLVAEHADAATHAMLALRPEHHDSITLRIEAEPAAEAEDADDALAGAEMLTLDLTVQHGDALKAAARKALPKQKDIEAWIAPALFADAQLNVRFVDEEEGRTLNHTYRGKDYATNVLTFSYAETEDDPVAADIVLCCPVVEQEAKDQGKPLRAHYAHLIVHGALHAQGYDHEDPAQAEEMEGIETEVLAGLGFPDPYADR")
"soluble"
>>> obs_value("MAHHHHHHMPHHAQDLRHDFTSGILNCHESCAVCLDACLCMYCTASAHHNFLMNDTEGLYLPVCWGLFCVDVGLSAVSSYLPSSLHFHTYFMRSAIRRRYNLHSA")
"soluble"
>>> obs_value("MAHHHHHHMPIPSPPPPMRFVPNGVGGGGARDLTAVKEPNFEVLETSSPVPARVIHNAPASAVPSGTQRPVEAPPSTHATGAQHHPKAVHSPPLACPALAMTSTPASSSSSSSSQQVAQLWQLVQDLTAENAVLQQRVRVLMEGETHDAILPGMLTAPSSPEETEALLLRVRRLEAALKVEAMEREALEVRLQAQEQVLTRLLRR")
"soluble"

For every item below, please supply its soluble on expression in E. coli.
1. MSGSVPFIRRLAVIGVGLIGGSLARALRTAGAVGEIIGIDRDEANLRQAAELGVVDRAAATVAEGVAGADMVFLSVPVRAMAGVVREIAPHLAAGCIVTDGGSVKAEVVAACDPLMPAGTCFVGGHPIAGTEHSGVGASFATLYQGKRCILTPAATTDRDALATVARMWEAAGSEVVLMDPEKHDRVVAAISHLPHMVAYALVNAVEGYDRFEESILRYSAGGFRDFTRIASSDPAMWRDIALMNREGVLEMMDHFAAYFGQLRSLVAAGDAEGLERFFRDSKESRDAILLEHHHHHH
2. MGSDKIHHHHHHMMKMQVVIASGKGGVGKSSITASLLYLLKDEYKLIAVDADAEAPNLGLLLGVTEWEIEREHIGAKIARINPESCIRCGLCQMRCPYECIYVDEEGNYVVNELTCEGCNVCGLVCPVPGTITLEEVRSGIIRKATTKYGFPIISAQLDVGKPESGKLVTEEKEWASKIMKEEGLEHMIVDSAAGIGCQVIASVGGADVAILIAEPTPASLSDVQRVYKVVQHFREPAYLIINKADINPGFTKLREWAESEGIPILGEVPYDSSIPRSMSMLKPFVEAFPDSKASEAIRGIAERIKEEILKG
3. MVSATYSVVYETGKKLNSGFDNWGWDSKMSFKDNSLVLTADPDEYGAISLKNLNSNYYGKGGCIYLQVKTETEGLVKVQGVRGYDETEAFNVGSFRSSSDFTEYKFEVDDEYQFDRIIVQDGPASNIPIYMRYIIYSTGSCDDHILEHHHHHH
4. APPSSFSKAKKEAVKIYLDYPTSFYCGCDITWKNKKKGIPELESCGYQVRKQEKRASRIEWEHVVPAWQFGHQRQCWQKGGRKNCTRNDKQFKSMEADLHNLVPAIGEVNGDRSNFRFSQWNGSKGAFYGQCAFKVDFKGRVAEPPAQSRGAIARTYLYMNNEYKFNLSKAQRQLMEAWNKQYPVSTWECTRDERIAKIQGNHNQFVYKAC

1: soluble; 2: not soluble; 3: soluble; 4: soluble
